Biological target: T1, human VPAC2 receptor (human, UniProt P41587 24-438)
T1 sequence (looked up): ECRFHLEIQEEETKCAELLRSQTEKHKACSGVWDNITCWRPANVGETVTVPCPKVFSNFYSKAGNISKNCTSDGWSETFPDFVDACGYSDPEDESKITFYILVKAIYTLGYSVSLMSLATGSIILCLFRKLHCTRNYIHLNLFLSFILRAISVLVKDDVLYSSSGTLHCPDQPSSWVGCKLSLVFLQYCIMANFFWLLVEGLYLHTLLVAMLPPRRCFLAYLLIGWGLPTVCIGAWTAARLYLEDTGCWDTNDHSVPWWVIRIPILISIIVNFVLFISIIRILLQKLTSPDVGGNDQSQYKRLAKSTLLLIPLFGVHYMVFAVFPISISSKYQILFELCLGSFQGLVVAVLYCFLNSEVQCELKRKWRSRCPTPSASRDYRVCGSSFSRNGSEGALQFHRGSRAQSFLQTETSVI
Assay: cell-based or functional assay
Where no end group is shown, it is not given here. [ ]: non-standard residue; d: D form. The star is where a group is joined. hArg = N=C(N)NCCCC[C@H](N)C(=O)O; Hexanoyl = CCCCCC(=O)*
# if measured EC50 cAMP, Alpha Screen < 3 nM: Criterion met  # else: Criterion not met

Please review the entries below; each comes with its answer.
Hexanoyl-HSDAVFTDNYTRLRKQVAAKKILQSIKNKRYGGPSSGAPPPS [P133] | Criterion met
Hexanoyl-HSDAVFTANYTRLRKQVAAKKYLQSIKNKRYGGPSSGAPPPS [P158] | Criterion met

Is the reported EC50 cAMP, Alpha Screen for HSDAVFTDNYTRLRKQVAAKKYLQSIKRGGPSSGAPPPS [P82] strictly below 3 nM?
Criterion not met

Can you handle Hexanoyl-H[dA]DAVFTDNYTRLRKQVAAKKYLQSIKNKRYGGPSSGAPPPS [P101] next?
Criterion met

Input Hexanoyl-HSDA[dV]FTDNYTRLRKQVAAKKYLQSIKNKRYGGPSSGAPPPS [P210]
Criterion met

Param item: Hexanoyl-HSDAVFTDNYTRLRKQVAAKKYVQSIKNKRYGGPSSGAPPPS [P234]
Criterion met

Please do the same for Hexanoyl-HSDAVFTDNYTRLRKQVAAKKLLQSIKNKRYGGPSSGAPPPS [P132] as well.
Criterion not met

Param item: HSDAVFTDNYTRLRKQVAAKKYLQSIKNGRPSSGAPPPS [P92]
Criterion not met

Subsequent entry: HSDAVFTDNYTRAAAKVAAKKYLQSIKNKRYGGPSSGAPPPS [P88]
Criterion not met

Input Hexanoyl-HSDIVFTDNYTRLRKQVAAKKYLQSIKNKRYGGPSSGAPPPS [P221]
Criterion met

Then what about the binder Hexanoyl-HSDAVFTDNYTRLRKQVAAKKYLQSIKQKGGPSSGAPPPS [P270] ?
Criterion met

Again, but for HSDAVFTDNYTRLRKQVAAKKYLQSI[hArg]NKRYGGPSSGAPPPS (ends and bridges not checked) [P22]
Criterion met
